Target: FXR ligand binding domain (GST-FXR LBD fusion protein, human FXR aa 193-473) (Homo sapiens, UniProt Q96RI1)
Construct: fused on or other part: Glutathione-S-transferase (GST) fused N-terminally to the FXR LBD, used to capture the protein on glutathione SPA beads
Sequence (Q96RI1 211-486 limits assumed): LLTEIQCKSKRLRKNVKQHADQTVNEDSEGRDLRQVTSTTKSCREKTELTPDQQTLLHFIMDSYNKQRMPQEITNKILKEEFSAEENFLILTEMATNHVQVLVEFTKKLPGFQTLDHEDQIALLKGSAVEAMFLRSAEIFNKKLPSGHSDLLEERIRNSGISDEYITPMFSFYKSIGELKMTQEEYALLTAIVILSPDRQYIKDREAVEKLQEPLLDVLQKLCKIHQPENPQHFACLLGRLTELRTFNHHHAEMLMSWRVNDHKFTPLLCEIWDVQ
Run Description: Radioligand binding assay (scintillation proximity, radioligand displacement)
Condition: 40 nM GST-FXR LBD on SPA beads, test compound 6×10^−9 M to 2.5×10^−5 M, read-out: h-IC50 Binding
Reported Property: IC50 (nM)
State the answer as a number, implicitly in nM.

Compound: O=C(O)c1ccc(COCC(C2CCCCC2)n2c(-c3ccc(Cl)cc3)nc3cc(F)c(F)cc32)c(F)c1 (stereo not drawn) [Example 59]
IC50 (nM): 60

Give its IC50 value. Item: O=C(O)c1ccc(CCC(C2CCCCC2)n2c(-c3ccccc3)nc3cc(F)c(F)cc32)cc1 (single isomer, unassigned; (+)) [Example 144] 200

Give its IC50 value. Item: O=C(O)c1ccc(COCC(C2CCCCC2)n2c(-c3ccc(Cl)cc3)nc3cc(F)c(F)cc32)c(F)c1 (single isomer, unassigned; (+)) [Example 64] 300
